// provenance: the supplement of paper PMC10567573

B1: PLAGL1 (parent)
chain: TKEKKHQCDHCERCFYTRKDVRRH

# Variants of: B1
# measurement.protocol: protein stability index of a GFP-peptide fusion (GPS, HEK-293T) (PSI 1-6); higher = more stable;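 note: lentivirally expressed fusions sorted by FACS into six bins by GFP to DsRed ratio, PSI derived from sequencing read proportions per bin multiplied by bin number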
# measurement.parameters: c terminus: a fixed tail appended
Quick reference: protein stability index of the listed items.
measure.name: protein stability index

biopolymer_sequence="TKEKKHQCDHCEACFYTRKDVRRH [R13A]" measure_name="protein stability index" recorded_number=3.77
biopolymer_sequence="TKEKKHQCDHCEKCFYTRKDVRRH [R13K]" measure_name="protein stability index" recorded_number=3.54
biopolymer_sequence="TNEKKHQCDHCERCFYTRKDVRRH [K2N]" measure_name="protein stability index" recorded_number=3.21
biopolymer_sequence="TKEKKHQCDHSERCFYTRKDVRRH [C11S]" measure_name="protein stability index" recorded_number=3.42
biopolymer_sequence="TKEKKHQCDHCERCAYTRKDVRRH [F15A]" measure_name="protein stability index" recorded_number=3.79
biopolymer_sequence="TPEKKHQCDHCERCFYTRKDVRRH [K2P]" measure_name="protein stability index" recorded_number=3.1
biopolymer_sequence="TKEKKHQCDHCERCFYTRKAVRRH [D20A]" measure_name="protein stability index" recorded_number=3.61
biopolymer_sequence="TKEKDHQCDHCERCFYTRKDVRRH [K5D]" measure_name="protein stability index" recorded_number=3.53
biopolymer_sequence="TKEKKHQCDHCERCFYTRKHVRRH [D20H]" measure_name="protein stability index" recorded_number=3.43
biopolymer_sequence="TKEKKHQCDHCERCFYTRKDVTRH [R22T]" measure_name="protein stability index" recorded_number=4.04
biopolymer_sequence="TKEHKHQCDHCERCFYTRKDVRRH [K4H]" measure_name="protein stability index" recorded_number=3.42
biopolymer_sequence="TKEKKHQCDHCEECFYTRKDVRRH [R13E]" measure_name="protein stability index" recorded_number=3.66
biopolymer_sequence="TKEKKHQCDHCERCFYTRKDVRRD [H24D]" measure_name="protein stability index" recorded_number=3.84
biopolymer_sequence="TKEKKHQCDHCERCFYTRKDDRRH [V21D]" measure_name="protein stability index" recorded_number=3.53
biopolymer_sequence="TKEKKHQCDHCEDCFYTRKDVRRH [R13D]" measure_name="protein stability index" recorded_number=3.79
biopolymer_sequence="TKEKKHQCDHCERCFYTRKDVRRK [H24K]" measure_name="protein stability index" recorded_number=3.62
biopolymer_sequence="TKEKKHKCDHCERCFYTRKDVRRH [Q7K]" measure_name="protein stability index" recorded_number=3.8
biopolymer_sequence="IKEKKHQCDHCERCFYTRKDVRRH [T1I]" measure_name="protein stability index" recorded_number=3.57
biopolymer_sequence="TKEKKHQNDHCERCFYTRKDVRRH [C8N]" measure_name="protein stability index" recorded_number=3.29
biopolymer_sequence="TKEKKHQCDHTERCFYTRKDVRRH [C11T]" measure_name="protein stability index" recorded_number=3.24
biopolymer_sequence="TKEKKHQCDHCERCFYTVKDVRRH [R18V]" measure_name="protein stability index" recorded_number=3.27
biopolymer_sequence="TKEKKHQCDHCERCTYTRKDVRRH [F15T]" measure_name="protein stability index" recorded_number=4.24
